# Test system: OVCAR-8
# testName: NCI tumour cell line growth inhibition, 48 h
The source made the active and inactive calls. Rule as the data show it: active = GI50 up to about 1.1 µM and inactive = higher.
valueKind: GI50

Here are 4 compounds together with their reported answers.
> print(dat)
                                   compound       reportedresult
1  NC1=NN(c2ccccc2)C(=O)C1C(=O)CCC(=O)Nc1cccc(C(F)(F)F)c1 (centres undefined)  > 100 µM (inactive)
2  C[n+]1c(/C=C/c2ccc(/C=N/NC(=O)c3ccc(C(=O)N/N=C/c4ccc(/C=C/c5cn6ccccc6[n+]5C)cc4)cc3)cc2)cn2ccccc21  > 100 µM (inactive)
3  O=C1c2ccccc2C(=O)c2c(NCC(O)CO)ccc(NCC(O)CO)c21 (centres undefined)   69.2 µM (inactive)
4  O=C1CSC2(CC(/C=C/c3ccccc3)=NN2c2cccc(S(=O)(=O)O)c2)N1c1nc2ccccc2s1 (centres undefined)   17.9 µM (inactive)

Data request: What does the record list as GI50 for NC(Cc1ccc2oc3cc(=O)c4ccccc4c-3nc2c1)C(=O)O (centres undefined) ?
Data returned: 37.4 µM (inactive)

Data request: # GI50 lookup, item `COc1ccc(-c2onc(-c3c(C)cc(C)cc3C)c2C2=NCCN2)cc1`
Data returned: 34.8 µM (inactive)

Data request: Requested read-out: GI50. Entry: CC(=O)OCC1OC(N2C(=O)/C(=C\c3ccc(Cl)cc3)C(N)=Nc3ccccc32)C(OC(C)=O)C(OC(C)=O)C1OC(C)=O (centres undefined)
Data returned: 13.8 µM (inactive)

Data request: Quick one: GI50 for `CCCCCOc1ccc(/C=N\c2ccc(-c3ccc(/N=C\c4ccc(OCCCCC)cc4)c(OC)c3)cc2OC)cc1` ?
Data returned: > 100 µM (inactive)

Data request: I would be grateful if you could share the reported GI50 for `CCOC(=O)CN1C(=O)c2c(NC(=O)C(=O)O)cccc2S1(=O)=O` .
Data returned: > 100 µM (inactive)
